Measured DC50 values are reported for all entries that follow.
- Target under test: CK1α (Homo sapiens, UniProt P48729+Q96SW2)
- Construct: CSNK1A1-HiBit KI HEK293(LgBit) Cells; host or cells: HEK293(LgBit) knock-in cells
- Sequence (P48729 whole entry): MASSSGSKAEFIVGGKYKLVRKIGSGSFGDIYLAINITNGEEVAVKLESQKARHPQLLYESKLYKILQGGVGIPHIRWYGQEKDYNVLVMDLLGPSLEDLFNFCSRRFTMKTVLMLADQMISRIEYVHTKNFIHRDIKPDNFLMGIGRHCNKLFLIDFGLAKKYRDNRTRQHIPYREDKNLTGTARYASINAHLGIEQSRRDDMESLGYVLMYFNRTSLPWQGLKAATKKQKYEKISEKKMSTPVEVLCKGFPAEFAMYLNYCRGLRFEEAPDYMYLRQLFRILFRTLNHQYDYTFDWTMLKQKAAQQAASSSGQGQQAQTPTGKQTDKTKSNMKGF
- Sequence (Q96SW2 whole entry): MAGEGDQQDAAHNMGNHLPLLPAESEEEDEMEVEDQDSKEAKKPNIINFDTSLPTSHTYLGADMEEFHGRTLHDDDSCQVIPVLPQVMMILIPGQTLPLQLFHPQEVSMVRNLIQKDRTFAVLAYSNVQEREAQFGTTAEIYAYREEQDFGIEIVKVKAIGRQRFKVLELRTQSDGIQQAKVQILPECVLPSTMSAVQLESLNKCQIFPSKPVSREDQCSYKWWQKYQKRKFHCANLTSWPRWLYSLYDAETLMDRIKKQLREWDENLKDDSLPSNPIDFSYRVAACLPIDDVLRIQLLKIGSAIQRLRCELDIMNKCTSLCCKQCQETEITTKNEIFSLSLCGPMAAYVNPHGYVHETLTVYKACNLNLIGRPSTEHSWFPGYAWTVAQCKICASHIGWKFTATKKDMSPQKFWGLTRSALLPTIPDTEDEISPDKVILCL
- Sequence (Q16531 whole entry partner): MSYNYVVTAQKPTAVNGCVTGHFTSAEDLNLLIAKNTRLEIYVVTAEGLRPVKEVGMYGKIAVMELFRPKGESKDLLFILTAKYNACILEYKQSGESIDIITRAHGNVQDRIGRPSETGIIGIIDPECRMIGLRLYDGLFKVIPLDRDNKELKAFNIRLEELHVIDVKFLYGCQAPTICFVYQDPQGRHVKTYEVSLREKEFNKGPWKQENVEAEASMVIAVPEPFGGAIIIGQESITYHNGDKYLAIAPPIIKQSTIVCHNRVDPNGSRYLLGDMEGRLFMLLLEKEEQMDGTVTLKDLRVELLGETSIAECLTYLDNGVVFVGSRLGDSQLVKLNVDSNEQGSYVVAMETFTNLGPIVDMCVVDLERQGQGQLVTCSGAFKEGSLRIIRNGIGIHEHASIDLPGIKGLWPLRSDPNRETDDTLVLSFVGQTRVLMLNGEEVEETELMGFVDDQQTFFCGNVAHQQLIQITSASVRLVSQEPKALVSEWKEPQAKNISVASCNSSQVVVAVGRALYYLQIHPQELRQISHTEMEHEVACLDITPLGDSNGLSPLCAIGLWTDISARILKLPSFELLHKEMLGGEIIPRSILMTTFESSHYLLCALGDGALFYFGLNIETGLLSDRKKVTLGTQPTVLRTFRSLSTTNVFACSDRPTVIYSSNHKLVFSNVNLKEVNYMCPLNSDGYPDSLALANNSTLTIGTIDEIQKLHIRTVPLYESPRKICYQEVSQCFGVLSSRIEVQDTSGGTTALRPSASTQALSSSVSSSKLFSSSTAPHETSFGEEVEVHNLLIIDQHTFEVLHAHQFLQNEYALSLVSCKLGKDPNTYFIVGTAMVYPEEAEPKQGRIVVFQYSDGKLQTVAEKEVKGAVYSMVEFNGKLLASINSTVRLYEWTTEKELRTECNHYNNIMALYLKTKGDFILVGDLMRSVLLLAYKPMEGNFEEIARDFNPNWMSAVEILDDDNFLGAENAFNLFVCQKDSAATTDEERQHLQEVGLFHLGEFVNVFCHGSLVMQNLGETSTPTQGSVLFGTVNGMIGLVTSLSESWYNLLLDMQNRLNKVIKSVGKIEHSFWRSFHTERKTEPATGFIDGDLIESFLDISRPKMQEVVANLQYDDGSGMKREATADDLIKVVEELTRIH
- Protocol text: HiBiT degradation assay, CK1α, Procedure A
- Type: cell-based
- Particulars: six hours
- Experimental: Compounds were spotted onto Cornin 384-Well, Cell Culture-Treated, Flat-Bottom, Low Flange Microplate (Fisher Scientific, Catalog #07-201-013) using a Tecan D300e digital dispenser. […] Cells were dissociated from tissue 182 cm^2 Tissue Culture Flask (CellTreat Catalog #229351) by washing the cells with PBS (Fisher Scientific Catalog #BP3994) followed by dissociation with Trypsin-EDTA (0.25%) (Thermo Scientific Catalog #25200056). […] Cell density was determined using a Denovix CellDrop BF cell counter. […]

Molecule | DC50
Cn1cnc(-c2ccc3c(c2)CN(C2CCC(=O)NC2=O)C3=O)c1-c1cnn(Cc2ccccc2)c1 (centres unmarked) [Example 406] | ≥ 25 nM
Cn1ncc(-c2ccc3c(c2)CN(C2CCC(=O)NC2=O)C3=O)c1C1CCOCC1 (centres unmarked) [Example 694] | ≥ 25 nM
Cn1cnc(-c2ccc3c(c2)CN(C2CCC(=O)NC2=O)C3=O)c1-c1ccc(-n2cccn2)cc1 (centres unmarked) [Example 444] | < 25 nM
[2H]C([2H])([2H])n1ncc(-c2ccc3c(c2)CN(C2CCC(=O)NC2=O)C3=O)c1-c1ccc2c(c1)CCO2 (centres unmarked) [Example 432] | < 25 nM
CCc1nc(-c2ccc3c(c2)CN(C2CCC(=O)NC2=O)C3=O)c(-c2ccccc2)o1 (centres unmarked) [Example 720] | < 25 nM
Cn1ncc(-c2ccc3c(c2)CN(C2CCC(=O)NC2=O)C3=O)c1-c1ccn(-c2ccc(F)cc2)n1 (centres unmarked) [Example 396] | < 25 nM
Cc1ncccc1-c1c(-c2ccc3c(c2)CN(C2CCC(=O)NC2=O)C3=O)ncn1C (centres unmarked) [Example 507] | < 25 nM
Cn1cnc(-c2ccc3c(c2)CN(C2CCC(=O)NC2=O)C3=O)c1C1CCCCC1 (centres unmarked) [Example 594] | < 25 nM

====

- Target under test: CK1α (Homo sapiens, UniProt P48729+Q96SW2)
- Construct: CSNK1A1-HiBit KI HEK293(LgBit) Cells; host or cells: HEK293(LgBit) knock-in cells
- Protocol text: HiBiT degradation assay, CK1α, Procedure A
- Assay type: cell-based
- Particulars: six hours

Compound | DC50
CC(C)c1nc(-c2ccc3c(c2)CN(C2CCC(=O)NC2=O)C3=O)c(-c2cncnc2)n1C (centres unmarked) | < 25 nM
Cn1cc(-c2ccc3c(c2)CN(C2CCC(=O)NC2=O)C3=O)nc1-c1ccc(OC(F)F)cc1 (centres unmarked) | < 25 nM
Cn1cnc(-c2ccc3c(c2)CN(C2CCC(=O)NC2=O)C3=O)c1-c1ccc(=O)n(C)c1 (centres unmarked) | ≥ 25 nM
Cc1ccc(-c2nc(-c3ccc4c(c3)CN(C3CCC(=O)NC3=O)C4=O)cn2C)cc1Cl (centres unmarked) | < 25 nM
Cc1cccc(-c2nc(-c3ccc4c(c3)CN(C3CCC(=O)NC3=O)C4=O)cn2C)c1 (centres unmarked) | < 25 nM
Cn1cc(-c2ccc3c(c2)CN(C2CCC(=O)NC2=O)C3=O)nc1-c1ccc(F)cc1F (centres unmarked) | < 25 nM
CC(=O)Nc1ccc(-c2nc(-c3ccc4c(c3)CN(C3CCC(=O)NC3=O)C4=O)cn2C)cc1 (centres unmarked) | < 25 nM
Cn1cc(-c2ccc3c(c2)CN(C2CCC(=O)NC2=O)C3=O)nc1-c1ccc(C#N)c(F)c1 (centres unmarked) | < 25 nM
